Molecular target: ZFP SBS#845 (synthetic)
Sequence (chain, as listed by the source): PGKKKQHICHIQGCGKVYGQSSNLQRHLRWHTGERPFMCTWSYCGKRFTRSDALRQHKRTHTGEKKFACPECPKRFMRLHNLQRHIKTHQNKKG
Experiment: EMSA
Settings: tags: MBP fusion
reported-endpoint: Kd (nM)
Numeric answer only, unit nM assumed.

// Input: GAGATGGATC (dsDNA) DNA 1: GAGATGGATC DNA 2: GATCCATCTC . Output its Kd only.
112
